Measured viability, T/C, listed per entry.
# System: 276233-004-R-J1-PDC KRAS spheroids with HUVEC/MSC, viability;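 note: cells exposed to agents for seven days before viability read; 100% = DMSO vehicle control wells and lower values mean fewer viable cells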
# measurement.description: Anticancer human tumor 276233-004-R-J1-PDC patient-derived colon adenocarcinoma cell line growth inhibition [KRAS2]
# stated.conditions: second compound 10 µM; first compound 10 µM; hits give low values
assay.readout: viability, T/C (%)

[
  {
    "compound": "O=C(c1cc(Cc2n[nH]c(=O)c3ccccc23)ccc1F)N1CCN(C(=O)C2CC2)CC1 + C=CC(=O)N1CCN(c2nc(=O)n(-c3c(C)ccnc3C(C)C)c3nc(-c4c(O)cccc4F)c(F)cc23)C(C)C1",
    "assay.readout": "viability, T/C",
    "unit.text": "%",
    "value": 77.8
  },
  {
    "compound": "COc1cc(Nc2ncc3c(n2)-c2ccc(Cl)cc2C(c2c(F)cccc2OC)=NC3)ccc1C(=O)O + COc1cc2nc(C)nc(NC(C)c3cc(N)cc(C(F)(F)F)c3)c2cc1OC1CCOC1",
    "assay.readout": "viability, T/C",
    "unit.text": "%",
    "value": 17.6
  },
  {
    "compound": "COc1cc(Nc2ncc3c(n2)-c2ccc(Cl)cc2C(c2c(F)cccc2OC)=NC3)ccc1C(=O)O + C=CC(=O)N1CCN(c2nc(=O)n(-c3c(C)ccnc3C(C)C)c3nc(-c4c(O)cccc4F)c(F)cc23)C(C)C1",
    "assay.readout": "viability, T/C",
    "unit.text": "%",
    "value": 86.5
  }
]
